Origin of the recorded values: paper PMC5540273

System: QSK
test.parameters: concentration: 1 μM, replicates: in singlicate; n = 1;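 further: KINOMEscan kinase panel screen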
Listing: %Inh of selected compounds

{"compound": "CS(=O)(=O)c1cccc(CNc2nc(Nc3ccc4c(c3)CCC(=O)N4)ncc2C(F)(F)F)c1", "system.under.test": "QSK", "%Inh / %": 0}
{"compound": "CCNc1nccc(-c2c(-c3ccc(F)cc3)ncn2C2CCN(C)CC2)n1", "system.under.test": "QSK", "%Inh / %": 0}
{"compound": "O=C(O)C(F)(F)F.O=c1[nH]ccc2nc(N[C@@H]3CCNC3)nc(Nc3ccc4c(c3)S(=O)(=O)CC4)c12 [GSK2181306]", "system.under.test": "QSK", "%Inh / %": 31}
{"compound": "CC(C)(C)c1ccc(C(=O)Nc2cn3cc(-n4ccnc4)ccc3n2)cc1", "system.under.test": "QSK", "%Inh / %": 0}
{"compound": "COc1cccc(CC(=O)N2CCc3cc(-c4cn(C)c5ncnc(N)c45)ccc32)c1 [GSK2608899]", "system.under.test": "QSK", "%Inh / %": 11}
{"compound": "CC(C)NCC(Cc1ccccc1)NC(=O)c1cc(Br)c(-c2ccnc3[nH]ccc23)s1.Cl.Cl (centres unmarked) [GSK1383281]", "system.under.test": "QSK", "%Inh / %": 5}
{"compound": "Cc1nn2c(=O)cc(N3CCO[C@H](C)C3)nc2n1Cc1cccc(Cl)c1Cl [GSK2373693]", "system.under.test": "QSK", "%Inh / %": 0}
{"compound": "Cl.N#CCc1ccc(Nc2nccc(Nc3ccc(Oc4ccccc4)cc3)n2)cc1 [GW639905]", "system.under.test": "QSK", "%Inh / %": 1}
{"compound": "CN(C)CCNS(=O)(=O)c1ccc(-c2ccnc3[nH]ccc23)cc1 [GSK977620]", "system.under.test": "QSK", "%Inh / %": 8}
{"compound": "Cc1cc(-c2ccnc(Nc3cccc(C#N)c3)n2)cc(C)c1O [GSK1440913]", "system.under.test": "QSK", "%Inh / %": 23}
{"compound": "CN(c1ccc(F)c(NC(=O)c2cccc(OC(C)(C)C#N)c2Cl)c1)c1ccc2nc(NC(=O)C3CC3)sc2n1", "system.under.test": "QSK", "%Inh / %": 0}
{"compound": "COc1cc(Nc2ccnc3cc(-c4ccncc4)ccc23)cc(OC)c1OC.Cl [GW494610]", "system.under.test": "QSK", "%Inh / %": 84}
{"compound": "CCn1c(-c2nonc2N)nc2c(-c3ccccc3)ncc(OCCCN)c21.O=C(O)C(F)(F)F.O=C(O)C(F)(F)F [GSK260205]", "system.under.test": "QSK", "%Inh / %": 27}
{"compound": "O=C(Nc1c(F)cccc1F)c1cc(C(=O)c2ccccc2F)c[nH]1 [GSK1326180]", "system.under.test": "QSK", "%Inh / %": 4}

---

System: ROS1
test.parameters: concentration: 1 μM, replicates: in singlicate; n = 1

{"compound": "CN(c1ccc2c(c1)nc(NCc1ccccc1)n2C)c1ccnc(Nc2ccc(CS(C)(=O)=O)cc2)n1.Cl [GW811603]", "system.under.test": "ROS1", "measure.unit": "%", "%Inh": 57}
{"compound": "COc1ccc(C)c(Nc2ccnc(Nc3ccc(-c4cnc[nH]4)cc3)n2)c1.Cl [GW784041]", "system.under.test": "ROS1", "measure.unit": "%", "%Inh": 3}
{"compound": "Cl.Cl.NC(CNC(=O)c1cc(Br)c(-c2ccnc3[nH]ccc23)s1)c1ccccc1 (stereo not shown) [GSK1322949]", "system.under.test": "ROS1", "measure.unit": "%", "%Inh": 51}
{"compound": "O=C(Nc1n[nH]c2nc(-c3cccc(O)c3)ccc12)C1CC1 [SB-711805]", "system.under.test": "ROS1", "measure.unit": "%", "%Inh": 0}
